B1: Azoarcus group I ribozyme (parent)
chain: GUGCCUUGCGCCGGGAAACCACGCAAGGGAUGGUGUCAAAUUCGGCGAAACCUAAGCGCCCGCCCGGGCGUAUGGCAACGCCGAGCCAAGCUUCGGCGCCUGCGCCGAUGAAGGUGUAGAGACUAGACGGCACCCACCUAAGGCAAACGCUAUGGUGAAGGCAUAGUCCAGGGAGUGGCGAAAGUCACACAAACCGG

- Variants of: B1
- Protocol: reverse-splicing fitness (ratio to wild type); higher = more active; in vitro selection; Mg2+ level not given
Recorded endpoint: reverse-splicing fitness
Lab note: write the figure by itself, no unit.

Observe how each entry below is paired with its result.
>  <Variant designation>
C82U A120U A145U U176C

>  <reverse-splicing fitness>
0.0847

$$$$
>  <Variant designation>
A111U A120U A145G C150A C169G U176A

>  <reverse-splicing fitness>
0.00807

$$$$
>  <Variant designation>
A111G A145C U176G

>  <reverse-splicing fitness>
0.448

$$$$
>  <Variant designation>
C82G A111U A120G A145C C150A C169U

>  <reverse-splicing fitness>
0.00694

$$$$
>  <Variant designation>
C82U A111G A120U C150U

>  <reverse-splicing fitness>
0.0236

$$$$
>  <Variant designation>
C82G A120U A145U C150A C169G U176G

>  <reverse-splicing fitness>
0.00134

$$$$
>  <Variant designation>
C82G A145G C150A C169U U176A

>  <reverse-splicing fitness>
0.0137

$$$$
>  <Variant designation>
A111G A120G A145U C150A C169G U176C

>  <reverse-splicing fitness>
0.0243

$$$$
>  <Variant designation>
A111C A120C A145G C150U C169A U176C

>  <reverse-splicing fitness>
0.0144

$$$$
>  <Variant designation>
A111U A120G C150U C169G

>  <reverse-splicing fitness>
0.112

$$$$

Please give the measured reverse-splicing fitness for this variant: C82U A111C A145U C150U U176C
0.0704

Please answer likewise for C82U A111C A120U
0.0257

Please answer likewise for A120U A145C C169U U176C
0.1

Please answer likewise for C82G A111G A120G A145C C150U C169A U176G
0.00578
